# Organism: Homo sapiens
# ASSAY_SUMMARY: Selectivity ratio of IC50 for human recombinant MAO-A to IC50 for human recombinant MAO-B
PROPERTY_NAME: Ratio IC50

Use the examples below as a reference point.
CHEMICAL_SMILES: CCOC(=O)c1cc2ccc(OCc3ccc(Cl)c(Cl)c3)cc2oc1=O
Ratio IC50: > 10600
--
CHEMICAL_SMILES: CCOC(=O)c1cc2cc(Cl)cc(Br)c2oc1=O
Ratio IC50: > 5.7
--
CHEMICAL_SMILES: CC(=O)c1cc2cc(Br)ccc2oc1=O
Ratio IC50: < 0.52
--
CHEMICAL_SMILES: CCOC(=O)c1cc2cccc(O)c2oc1=O
Ratio IC50: 2.7
--
CHEMICAL_SMILES: O=C(NNc1ccccc1[N+](=O)[O-])c1cc2ccccc2oc1=O
Ratio IC50: < 0.39

# input for lookup
**Q:** I'd like to know its Ratio IC50. The molecule in question is `CC(=O)c1cc2cc(Cl)cc(Br)c2oc1=O`
**A:** 394
